system: HeLa Kyoto; assay: melting temperature (median over replicates), in situ; higher = more thermally stable; conditions: cell cycle stage: G1/S;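 further: HeLa Kyoto cells synchronized by double thymidine or nocodazole block, proteins quantified by TMT10plex mass spectrometry, three independent biological replicates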
VALUE TYPE: melting temperature (°C)
Give the value in °C but do not write °C after it.

The examples below pair each entry with its known result.
>  <ORDERED RESIDUES>
MDRSAEFRKWKAQCLSKADLSRKGSVDEDVVELVQFLNMRDQFFTTSSCAGRILLLDRGINGFEVQKQNCCWLLVTHKLCVKDDVIVALKKANGDATLKFEPFVLHVQCRQLQDAQILHSMAIDSGFRNSGITVGKRGKTMLAVRSTHGLEVPLSHKGKLMVTEEYIDFLLNVANQKMEENKKRIERFYNCLQHALERETMTNLHPKIKEKNNSSYIHKKKRNPEKTRAQCITKESDEELENDDDDDLGINVTIFPEDY [TYW3]

>  <melting temperature / °C>
55

$$$$
>  <ORDERED RESIDUES>
MTDYGEEQRNELEALESIYPDSFTVLSENPPSFTITVTSEAGENDETVQTTLKFTYSEKYPDEAPLYEIFSQENLEDNDVSDILKLLALQAEENLGMVMIFTLVTAVQEKLNEIVDQIKTRREEEKKQKEKEAEEAEKQLFHGTPVTIENFLNWKAKFDAELLEIKKKRMKEEEQAGKNKLSGKQLFETDHNLDTSDIQFLEDAGNNVEVDESLFQEMDDLELEDDEDDPDYNPADPESDSAD [RWDD1]

>  <melting temperature / °C>
52.7

$$$$
>  <ORDERED RESIDUES>
MALLCYNRGCGQRFDPETNSDDACTYHPGVPVFHDALKGWSCCKRRTTDFSDFLSIVGCTKGRHNSEKPPEPVKPEVKTTEKKELCELKPKFQEHIIQAPKPVEAIKRPSPDEPMTNLELKISASLKQALDKLKLSSGNEENKKEEDNDEIKIGTSCKNGGCSKTYQGLESLEEVCVYHSGVPIFHEGMKYWSCCRRKTSDFNTFLAQEGCTKGKHMWTKKDAGKKVVPCRHDWHQTGGEVTISVYAKNSLPELSRVEANSTLLNVHIVFEGEKEFDQNVKLWGVIDVKRSYVTMTATKIEITMRKAEPMQWASLELPAAKKQEKQKDATTD [CHORDC1]

>  <melting temperature / °C>
52

$$$$
>  <ORDERED RESIDUES>
MAGPGPGPGDPDEQYDFLFKLVLVGDASVGKTCVVQRFKTGAFSERQGSTIGVDFTMKTLEIQGKRVKLQIWDTAGQERFRTITQSYYRSANGAILAYDITKRSSFLSVPHWIEDVRKYAGSNIVQLLIGNKSDLSELREVSLAEAQSLAEHYDILCAIETSAKDSSNVEEAFLRVATELIMRHGGPLFSEKSPDHIQLNSKDIGEGWGCGC [RAB43]

>  <melting temperature / °C>
55.1

$$$$
>  <ORDERED RESIDUES>
MAAVVVAAAGGAGPAVLQVAGLYRGLCAVRSRALGLGLVSPAQLRVFPVRPGSGRPEGGADSSGVGAEAELQANPFYDRYRDKIQLLRRSDPAAFESRLEKRSEFRKQPVGHSRQGDFIKCVEQKTDALGKQSVNRGFTKDKTLSSIFNIEMVKEKTAEEIKQIWQQYFAAKDTVYAVIPAEKFDLIWNRAQSCPTFLCALPRREGYEFFVGQWTGTELHFTALINIQTRGEAAASQLILYHYPELKEEKGIVLMTAEMDSTFLNVAEAQCIANQVQLFYATDRKETYGLVETFNLRPNEFKYMSVIAELEQSGLGAELKCAQNQNKT [ATPAF1]

>  <melting temperature / °C>
51.4

$$$$

Okay, now this sequence:
q: Given MSMEDPFFVVKGEVQKAVNTAQGLFQRWTELLQDPSTATREEIDWTTNELRNNLRSIEWDLEDLDETISIVEANPRKFNLDATELSIRKAFITSTRQVVRDMKDQMSTSSVQALAERKNRQALLGDSGSQNWSTGTTDKYGRLDRELQRANSHFIEEQQAQQQLIVEQQDEQLELVSGSIGVLKNMSQRIGGELEEQAVMLEDFSHELESTQSRLDNVMKKLAKVSHMTSDRRQWCAIAILFAVLLVVLILFLVL [STX6] , state its recorded melting temperature.
a: 53.5
